system: OVCAR-8 ovarian; experiment: NCI-60 one-dose screen, 48 h; details: 10 µM unless noted
Compounds without any hit were thinned out: in the full panel of roughly 83,000, 20% have a hit. The source made the active and inactive calls. Rule for the calls: active = growth percent below 10; inactive = the rest.
API: response.call in yes (1) (active), no (0) (inactive)

Example cases with answers are listed next.
>  <Mol smiles>
COc1ccc(C2(Cl)c3ccccc3N(c3ccccc3)c3ccccc32)cc1

>  <Assigned class>
yes (1)

$$$$
>  <Mol smiles>
O=C(Nc1ccc(/C=C2\SC(=O)N(Cc3ccc(OC(F)(F)F)cc3)C2=O)cc1)c1ccc(Cl)c([N+](=O)[O-])c1

>  <Assigned class>
no (0)

$$$$
>  <Mol smiles>
COc1ccc(NC(=S)N/N=C/c2ccccc2SSCCC(=O)OC[C@H]2O[C@H](O)[C@H](O)[C@@H](O)[C@@H]2O)cc1

>  <Assigned class>
no (0)

$$$$

Kindly review the next compound as well.
[in] For this compound, state the assay outcome: COC(=O)[C@]12CC[C@@H](C)[C@H](C)[C@@H]1C1=CC[C@@H]3[C@@](C)(CC#N)C4=C(C[C@@]3(C)[C@]1(C)CC2)OC[C@]4(C)C=O
[out] yes (1)

====

tested on: UACC-257 melanoma; test: NCI-60 one-dose screen, 48 h (100 = growth as untreated, 0 = no growth, -100 = all killed); conditions: 10 µM unless noted
This is part of a sample that, as a whole, favours compounds with a hit. Of some 83,000 tested, about 20% had one in any assay.
Reported growth values follow for various compounds
Field format: number, assumed %, no unit text.

>  <Compound>
COc1cc2nc(Cl)nc(Nc3cccc(C(=O)/C=C/c4ccc(F)cc4)c3)c2cc1OC

>  <Unit abbrev>
%

>  <growth>
102

$$$$
>  <Compound>
C=C1C(=O)O[C@H]2[C@H]1CC/C(COC(=O)NCCc1c[nH]c3ccccc13)=C\CC[C@@]1(C)O[C@@H]21

>  <Unit abbrev>
%

>  <growth>
63.3

$$$$
>  <Compound>
Cc1ccsc1-c1ccc2c(c1)COC2(CCCN(C)C)c1ccc(F)cc1 (centres undefined)

>  <Unit abbrev>
%

>  <growth>
-10.5

$$$$
>  <Compound>
C=C(C)[C@@H]1CC[C@]2(C(=O)N3CCN(C)CC3)CC[C@]3(C)[C@H](CC[C@@H]4[C@@]5(C)C/C(=C/c6ccc(C(F)(F)F)cc6)C(=O)C(C)(C)[C@@H]5CC[C@]43C)[C@@H]12

>  <Unit abbrev>
%

>  <growth>
98.5

$$$$
>  <Compound>
CCCC(=O)N1CCCCC1CC (centres undefined)

>  <Unit abbrev>
%

>  <growth>
90.6

$$$$
>  <Compound>
C/C(=C(/c1ccccc1)c1ccc(N2C(=O)c3cccc4c(NCc5ccccc5)ccc(c34)C2=O)cc1)c1ccccc1

>  <Unit abbrev>
%

>  <growth>
106

$$$$
>  <Compound>
N#C/C(=C\c1ccc(-c2ccc(Br)cc2)o1)c1nc(-c2ccco2)cs1

>  <Unit abbrev>
%

>  <growth>
102

$$$$
>  <Compound>
NC1(N)C=CC2=C(C=C1)C1(N)C3=C(C=CC(N)(N)C=C3)N2C2(N)C3=C(C=CC(N)(N)C=C3)N1C1=C2C=CC(N)(N)C=C1

>  <Unit abbrev>
%

>  <growth>
89.7

$$$$

[in] Consider the compound shown here: CCc1nnc(NC(=O)c2ccoc2COc2ccccc2)s1 What is its recorded growth?
[out] 76.9

[in] Entry under review: Cn1cc(-c2csc(-c3cn(C(=O)OC(C)(C)C)c4ccc(Br)cc34)n2)c2cccnc21 . Reported growth?
[out] 114

[in] Param item = COc1ccc(C2(Cl)c3ccccc3N(c3ccccc3)c3ccccc32)cc1 ; retrieve measured growth.
[out] -41.5

====

Below, each of the molecules is paired with its reported growth value.
tested on: UACC-62 melanoma; experiment: NCI-60 one-dose screen, 48 h (100 = growth as untreated, 0 = no growth, -100 = all killed); conditions: 10 µM unless noted
This is part of a sample that, as a whole, favours compounds with a hit. Of some 83,000 tested, about 20% had one in any assay.
// note: answer is a bare numeric in %

>  <Molecule>
CCSc1ncnc2c1ncn2C1OC(CO)C(O)C1O (stereo unspecified)

>  <growth [%]>
50.7

$$$$
>  <Molecule>
Cc1ccnc2c(OCc3ccccc3)cccc12

>  <growth [%]>
85.8

$$$$
>  <Molecule>
CCc1ccc(-c2ccc(Nc3ccccc3)nn2)cc1S(N)(=O)=O

>  <growth [%]>
81.1

$$$$
>  <Molecule>
CC(=O)c1c(C)[nH]c(-c2nc3ccc(N4CCN(C)CC4)cc3[nH]2)c1-c1ccc(OCC2CCOCC2)cc1

>  <growth [%]>
20.4

$$$$
>  <Molecule>
N#CC1=C(N)Oc2ccc3ccccc3c2C1c1ccccc1 (stereo unspecified)

>  <growth [%]>
18.6

$$$$

[in] // query growth value for entry CN(CSc1ccc(Cl)cc1)c1ccc(CSc2ccc(Cl)cc2)cc1
[out] 84

[in] I would be grateful if you could share the reported growth for CCCCCC1CCCCN1C(=O)OCC (stereo unspecified) .
[out] 105

[in] Suppose we examine the molecule COc1ccc2[nH]cc(-c3nc(-c4c[nH]c5ncccc45)cs3)c2c1 ; what growth value has been reported?
[out] 50.4

[in] GET /values?readout=growth&item= CCCNc1nc(N(C)O)nc(N(C)O)n1
[out] 31.5

[in] Field request: growth | item: COc1ccc(/C=C(\C#N)c2cc3ccccc3n2C(C)=O)cc1
[out] 74.1

[in] # get_value(readout='growth', item= COc1cc2c(cc1-c1c(C)noc1C)ncc1nc(C3CC3)n([C@H](C)COC(F)F)c12 )
[out] 25.5

====

test system: TK-10 renal; assay: NCI-60 one-dose screen, 48 h (100 = growth as untreated, 0 = no growth, -100 = all killed); details: 10 µM unless noted
This is part of a sample that, as a whole, favours compounds with a hit. Of some 83,000 tested, about 20% had one in any assay.
Reported growth values are given for each entry in this list.
Respond with the bare value in %.

>  <Molecule>
O=[N+]([O-])c1ccc(/C=N\Nc2ccccc2)cc1

>  <System tested>
TK-10 renal

>  <growth / %>
111

$$$$

[in] Can you share its growth? I mean this molecule: CNC(=O)c1cc(Oc2ccc3nc(NC(=O)Nc4ccc(Cl)cc4)sc3c2)ccn1
[out] 62.3

[in] What value of growth has been reported for the following molecule? Cc1ccnc2c(OCc3ccccc3)cccc12
[out] 102

[in] growth lookup needed for C=C(C)[C@@H]1CC[C@]2(C(=O)O)CC[C@]3(C)[C@H](CC[C@@H]4[C@@]5(C)C/C(=C/c6ccc(OC)cc6)C(=O)C(C)(C)[C@@H]5CC[C@]43C)[C@@H]12 , thanks.
[out] 24.5

[in] Which measured growth value corresponds to CC1(C)NC2=C(C(Nc3cccnc3)N1)C(c1ccc([N+](=O)[O-])cc1)C(C(=O)c1ccc(N=[N+]=[N-])cc1)O2 (stereo not given) ?
[out] 97.1

====

test system: HCT-15 colon; test: NCI-60 one-dose screen, 48 h; conditions: 10 µM unless noted
About 83,000 compounds went through this panel and 20% of them were active in at least one assay; those are over-represented in the sample as a whole. Activity calls are given as the source filed them. How the source made its calls: active means growth percent below 10; inactive means the rest.
Would you mind answering with one of these outcomes? label 1 (active), label 0 (inactive)

>  <Compound>
COc1ccccc1CNc1nc(N)nc2[nH]c3ccc(O)cc3c12

>  <Assigned class>
label 0

$$$$
>  <Compound>
CN1CCN(c2nc(-c3csc(-c4cccs4)n3)cc3ccccc23)CC1

>  <Assigned class>
label 1

$$$$
>  <Compound>
C#CCn1c(C)cc(C)c(C#N)c1=O

>  <Assigned class>
label 0

$$$$

[in] Call for entry CCN(CC)c1ccc(/C=C/c2cc(C)c3ccccc3n2)cc1 :
[out] label 0

[in] Recorded test outcome, item COc1cc(/C=N/Nc2ncnc3c2c(C)nn3-c2ccc(F)cc2)ccc1O
[out] label 0

[in] Can you look up the reported call for COc1cc2ncnc(Nc3ccc(OCc4cccc(F)c4)c(Cl)c3)c2cc1NC(=O)C1CCCC1 for me?
[out] label 0

[in] Recorded call for CCC(CC)C(=O)OC(C)COc1ccc(C(C)(C)C)cc1 (stereo not given) ?
[out] label 0

[in] How was CC(=O)c1c(C)[nH]c(-c2nc3ccc(N4CCN(C)CC4)cc3[nH]2)c1-c1ccc2c(c1)OCCO2 classified in this test?
[out] label 1

[in] For CC1(C)CC[C@]2(C(=O)Nc3ccccn3)CC[C@]3(C)C(=CC[C@@H]4[C@@]5(C)C/C(=C/c6ccncc6)C(=O)C(C)(C)[C@@H]5CC[C@]43C)[C@@H]2C1 , what call appears in the results of this test?
[out] label 0

[in] Called result for N=C(N)N=Nc1ccc(O)cc1
[out] label 0
